Test system: DMS-114
Assay: NCI tumour cell line growth inhibition, 48 h
Activity calls are given as the source filed them. Rule as the data show it: active = GI50 up to about 1.1 µM and inactive = higher.
Please state which outcome applies, choosing from t = active, f = inactive

Would you please look over these solved cases?
{"columns": ["MOLECULE", "CATEGORY LABEL"],
 "data": [
  ["O=C(c1ccncc1)n1nc(-c2ccccc2)c(/N=N/c2ccccc2[N+](=O)[O-])c1-c1ccccc1", "f"],
  ["CC1=C(C(=O)Nc2cc(=O)n(C)c(=O)n2C)C(c2cccc([N+](=O)[O-])c2)C(C(=O)Nc2cc(=O)n(C)c(=O)n2C)=C(C)N1", "f"],
  ["COC(=O)NC1C(C)OC(OC2C/C=C(/C)C3C=CC4C(OC5CC(OC6CC(O)C(OC7CC(O)C(OC)C(C)O7)C(C)O6)C(O)C(C)O5)C(C)CC(C)C4C3(C)C(=O)C3=C(O)C4(CC(C)C(CO)=CC4/C=C\\2C)OC3=O)CC1(C)[N+](=O)[O-] (stereo not drawn)", "f"]
]}

Query block: Any idea what this test logged for Cc1c(Cl)c2ccccc2n1S(=O)(=O)c1ccccc1 ?
Result block: f

Query block: Tell me the assay call for O=C1N[C@H](Cc2c[nH]cn2)C(=O)N2CCC[C@@H]12 please.
Result block: f
